Please provide measured inhibition of growth at 10 µM for the entries that follow.
test system: PA-1; experiment: Growth inhibition of Homo sapiens (human) PA1 cells at 10 uM after 48 hr by SRB assay; assay type: functional; conditions: PA-1, 48 h, read-out: GI
Provide the reading as a plain figure in %.

Entry COc1ccc(OC)c(C2CC(c3cccnc3)=NN2c2ccccc2)c1 (stereo not given) , inhibition of growth at 10 µM reported as 32

Per the records, this compound ( COc1ccc(OC)c(-c2nc(-c3ccncc3)no2)c1 ) has inhibition of growth at 10 µM equal to 19

Summary for this compound, C[C@@H]1C[C@@H]([C@H](O)CC2CC(=O)NC(=O)C2)C(=O)[C@@H](C)C1 [CYCLOHEXIMIDE] : inhibition of growth at 10 µM is 51

Measured inhibition of growth at 10 µM of COc1ccc(OC)c(C2CC(c3ccccn3)=NN2)c1 (stereo not given) : 25

// field: inhibition of growth at 10 µM; key: CN(C)c1ccc(C2CC(c3cccnc3)=NN2c2ccccc2)cc1 (stereo not given) ; value = 20

inhibition of growth at 10 µM reported for this compound O=c1[nH]cc(F)c(=O)[nH]1 : 10

inhibition of growth at 10 µM measured on CN(C)c1ccc(C2CC(c3ccccn3)=NN2c2ccccc2)cc1 (stereo not given) = 16

Form field inhibition of growth at 10 µM, entry O=P1(N(CCCl)CCCl)NCCCO1 (stereo not given) [CYCLOPHOSPHAMIDE ANHYDROUS] : 4

For this compound ( COc1ccc(OC)c(-c2nc(-c3ccccn3)no2)c1 ), measured inhibition of growth at 10 µM is 25

Record summary for COc1cc(-c2nc(-c3cnccn3)no2)ccc1O : reported inhibition of growth at 10 µM = 20

Value of measured inhibition of growth at 10 µM for the entry COc1cc(-c2nc(-c3ccccn3)no2)ccc1O : 30

For record COc1cc(-c2nc(-c3ccncc3)no2)ccc1O the listed inhibition of growth at 10 µM is 32

compound CN(C)c1ccc(C2CC(c3ccncc3)=NN2c2ccccc2)cc1 (stereo not given) , inhibition of growth at 10 µM observed: 24

Short answer for CN(C)c1ccc(C2CC(c3ccccn3)=NN2)cc1 (stereo not given) : inhibition of growth at 10 µM was 21

Lookup result for CN(C)c1ccc(C2CC(c3ccncc3)=NN2)cc1 (stereo not given) ; measured inhibition of growth at 10 µM: 26
